Sourced from patent US20240132589A1

# tested.target: T1, Recombinant human LILRB2 protein (ELISA antigen) (human, UniProt Q8N423 22-460)
# T1 construct: also called LILRB2-His; recombinant LILRB2
# T1 sequence (Q8N423 other isoform, or with tags, fused parts or gaps limits assumed): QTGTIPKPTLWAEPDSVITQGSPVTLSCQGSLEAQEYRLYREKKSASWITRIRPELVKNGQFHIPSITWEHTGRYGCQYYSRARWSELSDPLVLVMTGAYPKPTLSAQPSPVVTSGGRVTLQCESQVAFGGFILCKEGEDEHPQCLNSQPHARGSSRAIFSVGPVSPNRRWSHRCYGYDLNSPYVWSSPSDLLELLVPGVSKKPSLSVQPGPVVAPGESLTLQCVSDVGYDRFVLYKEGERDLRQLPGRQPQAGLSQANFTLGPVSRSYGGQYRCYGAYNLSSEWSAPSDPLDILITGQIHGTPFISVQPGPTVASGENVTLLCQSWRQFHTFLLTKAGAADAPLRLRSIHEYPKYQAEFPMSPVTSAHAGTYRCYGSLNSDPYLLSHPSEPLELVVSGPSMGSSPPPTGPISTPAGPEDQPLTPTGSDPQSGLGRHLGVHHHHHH
# assay: ELISA, plate-coated recombinant human LILRB2
Some binders, each annotated with its measured EC50.
Numeric answer only, unit ng/mL assumed.

Consider the reported EC50 for these binders:
binder: B2H4-54 (antibody, V domains shown, Humanized variant, human IgG4 / kappa) VH: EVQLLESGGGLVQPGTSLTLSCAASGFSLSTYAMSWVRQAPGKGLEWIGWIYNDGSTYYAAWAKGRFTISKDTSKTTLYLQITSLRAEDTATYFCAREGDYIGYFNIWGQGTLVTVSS VL: DIQMTQSPSSVSASVGDRVTITCQASQSIGSNLAWYQQKPGKAPKLLIYAAATLASGVPLRFSGSGSGTDFTLTISNLQPEDSATYYCQSYVSGSSDVAFGGGTKVEIK
val: 2
//
binder: B2H4-45 (antibody, V domains shown, Humanized variant, human IgG4 / kappa) VH: EVQLLESGGRLVQPGTSLRLSCAVSGFSLSTYAMSWVRQAPGKGLEWIGWIYNDGSTYYAAWAKGRFTISKDTSKTTLYLQMNSLTVEDTATYFCAREGDYIGYFNIWGQGTLVTVSS VL: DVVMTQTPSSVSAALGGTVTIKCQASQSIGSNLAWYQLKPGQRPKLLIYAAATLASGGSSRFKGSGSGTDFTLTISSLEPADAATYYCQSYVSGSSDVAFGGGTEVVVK
val: 2.3
//
binder: B2H4-44 (antibody, V domains shown, Humanized variant, human IgG4 / kappa) VH: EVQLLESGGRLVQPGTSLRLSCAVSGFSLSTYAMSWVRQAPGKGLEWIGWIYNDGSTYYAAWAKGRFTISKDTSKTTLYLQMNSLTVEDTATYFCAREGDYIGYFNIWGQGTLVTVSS VL: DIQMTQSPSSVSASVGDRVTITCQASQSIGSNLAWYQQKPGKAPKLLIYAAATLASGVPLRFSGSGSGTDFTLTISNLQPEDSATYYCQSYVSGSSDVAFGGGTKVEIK
val: 2.84
//
binder: B2H4-25 (antibody, V domains shown, Humanized variant, human IgG4 / kappa) VH: EVQLVESGGDLATPGGSLRLSCAVSGFSLSTYAMSWVRQAPGKGLEWVGWIYNDGSTYYAAWAKGRFTISKDTSKTTVYLQMTSLRAEDTALYFCAREGDYIGYFNIWGQGTLVTVSS VL: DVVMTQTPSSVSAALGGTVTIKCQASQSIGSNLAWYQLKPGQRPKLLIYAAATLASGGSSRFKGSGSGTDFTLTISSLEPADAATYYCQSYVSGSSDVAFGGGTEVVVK
val: 2.88
//
binder: B2H4-35 (antibody, V domains shown, Humanized variant, human IgG4 / kappa) VH: QVQLVESGGRVVQPGTPLRLSCAASGFSLSTYAMSWVRQAPGKGLEWVAWIYNDGSTYYAAWAKGRFTISRDTSKNTLYLQTNSLKPDDTAVYYCAREGDYIGYFNIWGQGTLVTVSS VL: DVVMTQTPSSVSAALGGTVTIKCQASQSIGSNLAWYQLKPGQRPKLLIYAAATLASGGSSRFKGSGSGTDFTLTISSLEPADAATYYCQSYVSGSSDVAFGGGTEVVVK
val: 2.75

Below: the item to evaluate.
INPUT: Fill in reported EC50 for this entry: B2H4-11 (antibody, V domains shown, Humanized variant, human IgG4 / kappa) VH: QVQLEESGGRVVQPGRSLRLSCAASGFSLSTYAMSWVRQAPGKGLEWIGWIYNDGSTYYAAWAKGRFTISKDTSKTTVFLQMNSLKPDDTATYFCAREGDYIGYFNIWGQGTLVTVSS VL: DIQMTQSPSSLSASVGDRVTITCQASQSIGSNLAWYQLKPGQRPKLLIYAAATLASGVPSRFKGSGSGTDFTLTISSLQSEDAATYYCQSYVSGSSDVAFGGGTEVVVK
OUTPUT: 3.98
